Target: panel of more than 300 wild-type and mutant kinases (313 kinase panel) (Homo sapiens)
Assay: Kinase profiling in a biochemical assay panel (mobility shift assays and ELISA), %-inhibition at 1 μM; selectivity entropy
Settings: kinase IKKα; compound at 1 μM
quantity-kind: %-inhibition of IKKα (%)

[[record]]
smiles_repr = "Cc1ccc(Nc2nccc(N(C)c3ccc4c(C)n(C)nc4c3)n2)cc1S(N)(=O)=O"
quantitative_result = -1.68

[[record]]
smiles_repr = "CNC(=O)c1cc(Oc2ccc(NC(=O)Nc3ccc(Cl)c(C(F)(F)F)c3)c(F)c2)ccn1"
quantitative_result = -0.333

[[record]]
smiles_repr = "Cc1ccc(C(=O)Nc2ccc(CN3CCN(C)CC3)c(C(F)(F)F)c2)cc1C#Cc1cnc2cccnn12"
quantitative_result = 27

[[record]]
smiles_repr = "COc1cc(Nc2c(C#N)cnc3cc(OCCCN4CCN(C)CC4)c(OC)cc23)c(Cl)cc1Cl"
quantitative_result = 1.66

[[record]]
smiles_repr = "CO[C@H]1C[C@@H]2CC[C@@H](C)[C@@](O)(O2)C(=O)C(=O)N2CCCC[C@H]2C(=O)O[C@H]([C@H](C)C[C@@H]2CC[C@@H](OC(=O)C(C)(CO)CO)[C@H](OC)C2)CC(=O)[C@H](C)/C=C(\\C)[C@@H](O)[C@@H](OC)C(=O)[C@H](C)C[C@H](C)/C=C/C=C/C=C/1C"
quantitative_result = 1.39

[[record]]
smiles_repr = "COc1cc2c(Nc3ccc(Br)cc3F)ncnc2cc1OCC1CCN(C)CC1"
quantitative_result = -4.38


====

Biological target: panel of more than 300 wild-type and mutant kinases (313 kinase panel) (Homo sapiens, UniProt Q96PN8)
Sequence (Q96PN8 1-268): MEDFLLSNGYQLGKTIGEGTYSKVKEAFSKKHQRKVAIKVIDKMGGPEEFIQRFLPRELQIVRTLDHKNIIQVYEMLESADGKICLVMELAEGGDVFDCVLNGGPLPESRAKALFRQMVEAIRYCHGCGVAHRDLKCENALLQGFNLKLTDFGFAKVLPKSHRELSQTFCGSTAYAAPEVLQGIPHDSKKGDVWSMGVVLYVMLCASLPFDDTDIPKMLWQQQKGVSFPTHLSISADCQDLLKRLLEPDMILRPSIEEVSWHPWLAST
Experiment: Kinase profiling in a biochemical assay panel (mobility shift assays and ELISA), %-inhibition at 1 μM; selectivity entropy
Details: kinase TSSK3; compound at 1 μM
Listing of entries alongside the reported %-inhibition of TSSK3.
quantity-kind: %-inhibition of TSSK3 (%)

[[record]]
molecule = "CS(=O)(=O)CCNCc1ccc(-c2ccc3ncnc(Nc4ccc(OCc5cccc(F)c5)c(Cl)c4)c3c2)o1"
quantity_kind = "%-inhibition of TSSK3"
quantitative_result = 0.192

[[record]]
molecule = "COc1cc2nccc(Oc3ccc(NC(=O)C4(C(=O)Nc5ccc(F)cc5)CC4)cc3)c2cc1OC [cabozantinib]"
quantity_kind = "%-inhibition of TSSK3"
quantitative_result = -1.06

[[record]]
molecule = "Cc1cn(-c2cc(NC(=O)c3ccc(C)c(Nc4nccc(-c5cccnc5)n4)c3)cc(C(F)(F)F)c2)cn1"
quantity_kind = "%-inhibition of TSSK3"
quantitative_result = 12


====

Listing of entries alongside the reported %-inhibition of MARK3.
Target: panel of more than 300 wild-type and mutant kinases (313 kinase panel) (Homo sapiens, UniProt P27448)
Sequence (P27448 whole entry, change not shown): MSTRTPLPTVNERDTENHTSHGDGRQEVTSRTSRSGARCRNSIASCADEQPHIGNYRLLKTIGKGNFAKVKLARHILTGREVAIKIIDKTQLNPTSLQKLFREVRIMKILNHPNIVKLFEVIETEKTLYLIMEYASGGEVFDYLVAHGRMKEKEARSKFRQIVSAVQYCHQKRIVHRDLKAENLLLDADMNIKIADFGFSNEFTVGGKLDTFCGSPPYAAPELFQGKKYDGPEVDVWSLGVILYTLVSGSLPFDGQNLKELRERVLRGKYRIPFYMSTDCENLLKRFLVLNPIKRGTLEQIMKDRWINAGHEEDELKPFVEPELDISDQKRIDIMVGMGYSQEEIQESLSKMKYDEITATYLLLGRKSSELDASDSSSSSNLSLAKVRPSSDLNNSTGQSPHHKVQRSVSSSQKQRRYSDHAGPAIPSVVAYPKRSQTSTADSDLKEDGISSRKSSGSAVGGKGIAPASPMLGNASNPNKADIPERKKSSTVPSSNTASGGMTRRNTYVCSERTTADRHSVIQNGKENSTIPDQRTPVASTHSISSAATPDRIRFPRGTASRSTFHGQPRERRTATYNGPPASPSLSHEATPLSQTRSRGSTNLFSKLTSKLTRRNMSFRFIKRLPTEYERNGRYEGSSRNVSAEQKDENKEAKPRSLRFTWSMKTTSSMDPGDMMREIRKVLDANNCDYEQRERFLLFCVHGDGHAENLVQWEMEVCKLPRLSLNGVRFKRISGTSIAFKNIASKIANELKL
Assay: Kinase profiling in a biochemical assay panel (mobility shift assays and ELISA), %-inhibition at 1 μM; selectivity entropy
Conditions: kinase MARK3; compound at 1 μM
quantity-kind: %-inhibition of MARK3

[[record]]
compound = "COc1cc2c(Nc3ccc(Br)cc3F)ncnc2cc1OCC1CCN(C)CC1 [vandetanib]"
quantity_kind = "%-inhibition of MARK3"
result = "4%"

[[record]]
compound = "CC(=O)Nc1cccc(-n2c(=O)n(C3CC3)c(=O)c3c(Nc4ccc(I)cc4F)n(C)c(=O)c(C)c32)c1 [trametinib]"
quantity_kind = "%-inhibition of MARK3"
result = "-3.21%"

[[record]]
compound = "CCCS(=O)(=O)Nc1ccc(F)c(C(=O)c2c[nH]c3ncc(-c4ccc(Cl)cc4)cc23)c1F [vemurafenib]"
quantity_kind = "%-inhibition of MARK3"
result = "-0.226%"

[[record]]
compound = "Cc1ccc(Nc2nccc(N(C)c3ccc4c(C)n(C)nc4c3)n2)cc1S(N)(=O)=O [pazopanib]"
quantity_kind = "%-inhibition of MARK3"
result = "4.45%"

[[record]]
compound = "CNC(=O)c1cc(Oc2ccc(NC(=O)Nc3ccc(Cl)c(C(F)(F)F)c3)c(F)c2)ccn1 [regorafenib]"
quantity_kind = "%-inhibition of MARK3"
result = "-3.48%"

[[record]]
compound = "O=S(=O)(c1cccc2cnccc12)N1CCCNCC1 [fasudil]"
quantity_kind = "%-inhibition of MARK3"
result = "13%"


====

Target: panel of more than 300 wild-type and mutant kinases (313 kinase panel) (Homo sapiens, UniProt O00311)
Experiment: Kinase profiling in a biochemical assay panel (mobility shift assays and ELISA), %-inhibition at 1 μM; selectivity entropy
Settings: kinase CDC7/ASK; 1 μM compound
quantity-kind: %-inhibition, CDC7/ASK (%)

[[record]]
smiles_repr = "N#CC[C@H](C1CCCC1)n1cc(-c2ncnc3[nH]ccc23)cn1"
quantity_kind = "%-inhibition, CDC7/ASK"
quantitative_result = 5.36

[[record]]
smiles_repr = "CO[C@H]1C[C@@H]2CC[C@@H](C)[C@@](O)(O2)C(=O)C(=O)N2CCCC[C@H]2C(=O)O[C@H]([C@H](C)C[C@@H]2CC[C@@H](OC(=O)C(C)(CO)CO)[C@H](OC)C2)CC(=O)[C@H](C)/C=C(\\C)[C@@H](O)[C@@H](OC)C(=O)[C@H](C)C[C@H](C)/C=C/C=C/C=C/1C"
quantity_kind = "%-inhibition, CDC7/ASK"
quantitative_result = -6

[[record]]
smiles_repr = "CNC(=O)c1cc(Oc2ccc(NC(=O)Nc3ccc(Cl)c(C(F)(F)F)c3)c(F)c2)ccn1"
quantity_kind = "%-inhibition, CDC7/ASK"
quantitative_result = -5.36

[[record]]
smiles_repr = "Cc1ccc(Nc2nccc(N(C)c3ccc4c(C)n(C)nc4c3)n2)cc1S(N)(=O)=O"
quantity_kind = "%-inhibition, CDC7/ASK"
quantitative_result = -3.46

[[record]]
smiles_repr = "CCCS(=O)(=O)Nc1ccc(F)c(C(=O)c2c[nH]c3ncc(-c4ccc(Cl)cc4)cc23)c1F"
quantity_kind = "%-inhibition, CDC7/ASK"
quantitative_result = -7


====

System: forty-four human cancer cell lines
Test: Cell proliferation assay (ATPlite, 72 hours) in the 44 cell line Oncolines panel
Type: cell-based
Conditions: Homo sapiens, LoVo, cell line LoVo; read-out: cell panel IC50, LoVo
pIC50: −log10 of the molar value.
quantity-kind: pIC50

[[record]]
smiles_repr = "CC(C)C[C@H](NC(=O)[C@H](Cc1ccccc1)NC(=O)c1cnccn1)B(O)O"
quantity_kind = "pIC50"
quantitative_result = 8.22

[[record]]
smiles_repr = "COc1cccc2c1C(=O)c1c(O)c3c(c(O)c1C2=O)C[C@@](O)(C(=O)CO)C[C@@H]3O[C@H]1C[C@H](N)[C@H](O)[C@H](C)O1"
quantity_kind = "pIC50"
quantitative_result = 7.31

[[record]]
smiles_repr = "CC[C@]1(O)C[C@H]2CN(CCc3c([nH]c4ccccc34)[C@@](C(=O)OC)(c3cc4c(cc3OC)N(C=O)[C@H]3[C@@](O)(C(=O)OC)[C@H](OC(C)=O)[C@]5(CC)C=CCN6CC[C@]43[C@@H]65)C2)C1"
quantity_kind = "pIC50"
quantitative_result = 8.00


====

Molecular target: panel of more than 300 wild-type and mutant kinases (313 kinase panel) (Homo sapiens)
Assay: Kinase profiling in a biochemical assay panel (mobility shift assays and ELISA), %-inhibition at 1 μM; selectivity entropy
Settings: kinase CDK7/CycH/MAT1; 1 μM compound
quantity-kind: %-inhibition, CDK7/CycH/MAT1

[[record]]
smiles_repr = "CS(=O)(=O)CCNCc1ccc(-c2ccc3ncnc(Nc4ccc(OCc5cccc(F)c5)c(Cl)c4)c3c2)o1"
quantity_kind = "%-inhibition, CDK7/CycH/MAT1"
result = "2%"

[[record]]
smiles_repr = "CO[C@H]1C[C@@H]2CC[C@@H](C)[C@@](O)(O2)C(=O)C(=O)N2CCCC[C@H]2C(=O)O[C@H]([C@H](C)C[C@@H]2CC[C@@H](OC(=O)C(C)(CO)CO)[C@H](OC)C2)CC(=O)[C@H](C)/C=C(\\C)[C@@H](O)[C@@H](OC)C(=O)[C@H](C)C[C@H](C)/C=C/C=C/C=C/1C"
quantity_kind = "%-inhibition, CDK7/CycH/MAT1"
result = "-8%"


====

Tested on: forty-four human cancer cell lines
Test: Cell proliferation assay (ATPlite, 72 hours) in the 44 cell line Oncolines panel
Format: cell-based
Details: Homo sapiens; cell line RPMI-7951; read-out: cell panel IC50, RPMI-7951
Listing of entries alongside the reported IC50.
quantity-kind: IC50

[[record]]
smiles_repr = "CCCS(=O)(=O)Nc1ccc(F)c(C(=O)c2c[nH]c3ncc(-c4ccc(Cl)cc4)cc23)c1F"
quantity_kind = "IC50"
result = "20.9 µM"

[[record]]
smiles_repr = "CNC(=O)c1cc(Oc2ccc(NC(=O)Nc3ccc(Cl)c(C(F)(F)F)c3)c(F)c2)ccn1"
quantity_kind = "IC50"
result = "5.88 µM"

